B1: CPEB3 Ribozyme (parent)
chain: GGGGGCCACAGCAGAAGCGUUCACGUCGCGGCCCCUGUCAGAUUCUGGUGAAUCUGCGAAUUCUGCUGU

- Variants of: B1
- Test name: self-cleavage, relative activity (ratio to wild type); higher = more cleavage; co-transcriptional
self-cleavage of 0.4 or higher: 1. Under 0.4: 0.

Solved cases (3 shown):
Residues: GGGGGCCACAGCAAAAGCGUUCACGUCGCGGCCCCUGUCAGGUUCUGGUGAAUCUGCGAAUUCUGCUGU [G14A A42G]
Group label: 0
//
Residues: GGGGGCCACAGCGGAAGCGUUCAGGUCGCGGCCCCUGUCAGAUUCUGGUGAAUCUGCGAAUUCUGCUGU [A13G C24G]
Group label: 0
//
Residues: GGGGGCCACAGCAGAAGCGUUCACGUCGCGGCCCCUGUCAGUUUCUGGUGAAUCUGCUAAUUCUGCUGU [A42U G58U]
Group label: 1

[in] Tell me whether self-cleavage is at least 0.4 here: GGGGGCCACAGCAGAAGCGUUCACGUCGCGGCUGCUGUCAGAUUCUGGUGAAUCUGCGAAUUCUGCUGU [C33U C34G]
[out] 0

[in] Tell me whether self-cleavage is at least 0.4 here: GGGGGCCACAGUAGAAGCGUUCAUGUCGCGGCCCCUGUCAGAUUCUGGUGAAUCUGCGAAUUCUGCUGU [C12U C24U]
[out] 1

[in] Tell me whether self-cleavage is at least 0.4 here: CGGGGCCACAGCAGAAGCGUUCACGUCGCGGGCCCUGUCAGAUUCUGGUGAAUCUGCGAAUUCUGCUGU [G1C C32G]
[out] 0

[in] Tell me whether self-cleavage is at least 0.4 here: GGGGGCCACGGCAGAAGCGUUCACGUCGCGGCCCUUGUCAGAUUCUGGUGAAUCUGCGAAUUCUGCUGU [A10G C35U]
[out] 1

[in] Tell me whether self-cleavage is at least 0.4 here: GGGGGCCACAGCAAAAGCGUUCACGUCGCGGCCCCUGUCAGAUUCUGGUGAAUCAGCGAAUUCUGCUGU [G14A U55A]
[out] 0

[in] Tell me whether self-cleavage is at least 0.4 here: GGGGGCCACAGCAGAAGCGUUCACGUCGCGGCCCCUGUCAGAUUCUGGUGAAUCCGCGAAUUCUUCUGU [U55C G65U]
[out] 1

[in] Tell me whether self-cleavage is at least 0.4 here: GGGGGCCACAGCAGAAGCAUUCACGUCGAGGCCCCUGUCAGAUUCUGGUGAAUCUGCGAAUUCUGCUGU [G19A C29A]
[out] 0

[in] Tell me whether self-cleavage is at least 0.4 here: GGGGGCCACAGCAGAAGCGUUCACGUCGCGGCCCCUGUCUGAUUCUUGUGAAUCUGCGAAUUCUGCUGU [A40U G47U]
[out] 1

[in] Tell me whether self-cleavage is at least 0.4 here: GGGGGCCACAGCAGACGCGUUCACGUCGCGGCCCCUGUCGGAUUCUGGUGAAUCUGCGAAUUCUGCUGU [A16C A40G]
[out] 0

Reference source for all entries: the RNAGym collection of RNA variant scans (doi:10.7554/elife.80360)
